Experiment: Anesthesia score chart comparing anesthetic agents for the four components of anesthesia (Table 1)
Set-up: key: 0 no effect; 1 minimal; 2 mostly; 3 maximal
Conditions: Anesthesia Score 0 to 3
# Muscle Relaxation per entry
quantity: Muscle Relaxation

* FC(F)OC(F)(F)C(F)Cl (stereo not shown) [ENF, enflurane, reference compound] | 1
* [N-]=[N+]=O [Nitrous Oxide, nitrous oxide] | 0
* FC(F)(F)C(Cl)Br (stereo not shown) [halothane] | 1
* FC(F)OC(Cl)C(F)(F)F (stereo not shown) [isoflurane] | 1
